- measured on: Genome polyprotein (Hepatitis C virus genotype 1a (isolate H77), UniProt P27958)
- Sequence (P27958 1027-1657 limits assumed): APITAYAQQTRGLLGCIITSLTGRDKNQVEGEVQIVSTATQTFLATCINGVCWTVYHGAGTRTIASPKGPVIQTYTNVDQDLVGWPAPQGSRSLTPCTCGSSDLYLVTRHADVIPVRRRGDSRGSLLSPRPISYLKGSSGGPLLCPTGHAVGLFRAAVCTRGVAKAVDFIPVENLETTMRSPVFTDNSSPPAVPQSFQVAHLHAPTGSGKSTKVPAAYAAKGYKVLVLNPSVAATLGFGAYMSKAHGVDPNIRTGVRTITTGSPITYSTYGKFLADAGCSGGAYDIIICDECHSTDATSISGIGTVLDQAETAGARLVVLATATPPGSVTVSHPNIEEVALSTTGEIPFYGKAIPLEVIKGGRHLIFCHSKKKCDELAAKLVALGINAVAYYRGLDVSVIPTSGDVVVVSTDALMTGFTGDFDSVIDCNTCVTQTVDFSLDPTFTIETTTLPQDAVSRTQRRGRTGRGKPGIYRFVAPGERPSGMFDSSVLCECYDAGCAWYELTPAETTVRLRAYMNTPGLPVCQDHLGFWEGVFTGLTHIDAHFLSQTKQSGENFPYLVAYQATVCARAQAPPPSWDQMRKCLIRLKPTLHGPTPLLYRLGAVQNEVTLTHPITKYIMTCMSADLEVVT
- measurement notes: Continuous Spectrophotometric Assay
pKi: −log10 of the molar value.
metric name: pKi

COC(=O)NC(C(=O)N1C[C@H]2[C@@H](C1C(=O)NC(CC1CC1)C(=O)C(N)=O)C2(C)C)C1CCCCC1 (some centres not stated) = 6.10
CC(=O)NC(C(=O)NC(C(=O)N1C[C@H]2[C@@H](C1C(=O)NC(CC1CCC1)C(=O)C(N)=O)C2(C)C)C(C)(C)C)C(C)C (some centres not stated) = 7.42
CC(C)(C)NC(=O)NC(C(=O)N1C[C@H]2[C@@H](C1C(=O)NC(CC1CC1(F)F)C(=O)C(N)=O)C2(C)C)C(C)(C)C (some centres not stated) = 7.30
CCOC(=O)NC(C(=O)N1C[C@H]2[C@@H](C1C(=O)NC(CC1CC1)C(=O)C(N)=O)C2(C)C)C1CCCCC1 (some centres not stated) = 6.64
CC(C)OC(=O)NC(C(=O)N1C[C@H]2[C@@H](C1C(=O)NC(CC1CC1)C(=O)C(N)=O)C2(C)C)C1CCCCC1 (some centres not stated) = 7.22

1 = CC(C)(C)NC(=O)NC(C(=O)N1C[C@H]2[C@@H](C1C(=O)NC(CC1CCC1)C(=O)C(N)=O)C2(Cl)Cl)C(C)(C)C (some centres not stated)
2 = CC(=O)NC(C(=O)NC(C(=O)N1C[C@H]2[C@@H](C1C(=O)NC(CC1CC1)C(=O)C(N)=O)C2(C)C)C1CCCCC1)C(C)C (some centres not stated)
Task for the reader: decide whether 1 or 2 has the larger pKi. Answer by stating the label of the chosen item.
1
(1: 7.72, 2: 7.17)

---

- measured on: Genome polyprotein (Hepatitis C virus genotype 1a (isolate H77), UniProt P27958)
- measurement notes: Continuous Spectrophotometric Assay
- stated conditions: pH 6.5; 30 °C
pKi: −log10 of the molar value.
metric name: pKi

CC(C)CC(NC(=O)C1[C@@H]2[C@H](CN1C(=O)C(NC(=O)OC(C)(C)C)C(C)(C)C)C2(C)C)C(=O)C(N)=O (some centres not stated) = 6.32

a = CC(C)(C)NC(=O)NC(C(=O)N1C[C@H]2[C@@H](C1C(=O)NC(C(=O)C(N)=O)C1CCC1)C2(C)C)C(C)(C)C (some centres not stated)
b = CCCC(NC(=O)C1[C@@H]2[C@H](CN1C(=O)C(NC(=O)OC(C)(C)C)C(C)(C)C)C2(C)C)C(=O)C(N)=O (some centres not stated)
c = CCCC(NC(=O)C1[C@@H]2[C@H](CN1C(=O)C(NC(=O)NC(C)(C)C)C1CCCCC1)C2(C)C)C(=O)C(N)=O (some centres not stated)
d = CCCCC(NC(=O)C1[C@@H]2[C@H](CN1C(=O)C(NC(=O)OC(C)(C)C)C(C)(C)C)C2(C)C)C(=O)C(N)=O (some centres not stated)
Please list these compounds in decreasing order of pKi. Respond with the label ranking, as requested.
c, a, b, d
